Target: human mPGES-1 (Homo sapiens, UniProt O14684)
Construct: made in house; host or cells: COS-1 cells (transient transfection; microsomal fraction used as enzyme)
Sequence (O14684 1-152): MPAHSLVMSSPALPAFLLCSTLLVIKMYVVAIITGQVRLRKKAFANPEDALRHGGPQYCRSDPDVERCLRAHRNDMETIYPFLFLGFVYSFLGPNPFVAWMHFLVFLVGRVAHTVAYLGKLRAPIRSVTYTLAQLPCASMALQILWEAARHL
Test: Test for mPGES-1 inhibitory activity (microsomal enzyme, PGE2 EIA)
Assay type: biochemical
Conditions: microsomes of COS-1 cells transfected with human mPGES-1 cDNA; PGH2 1 μM; 4° C., 4 minutes; PGE2 by EIA; read-out: h mPGES1 IC50
pIC50: −log10 of the molar value.
value_kind: pIC50

>>> observed_result("O=C(NCc1ccc(C(F)(F)F)c(-c2nc(C(F)(F)F)cc(=O)[nH]2)c1F)C1CCN(C(=O)Cc2ccc(F)cc2)CC1 [Example 275]")
9.03

Incoming: Report pIC50 under test system human mPGES-1 (Homo sapiens, UniProt O14684) for O=c1cc(C(F)(F)F)nc(-c2c(C(F)(F)F)ccc(CNC(=O)[C@H]3C[C@H](OCc4ccc(F)c(F)c4)C3)c2F)[nH]1 [Example 150] .
Outgoing: > 9.00

Incoming: Quote pIC50 with test system human mPGES-1 (Homo sapiens, UniProt O14684) for CCc1nc(-c2c(C(F)(F)F)ccc(CNC(=O)[C@H]3C[C@H](OCc4ccccc4C(F)(F)F)C3)c2F)[nH]c(=O)c1F [Example 232]
Outgoing: > 9.00

Incoming: State the measured pIC50 (human mPGES-1 (Homo sapiens, UniProt O14684)) of O=c1cc(C(F)(F)F)nc(-c2c(C(F)(F)F)ccc(CNC(=O)[C@H]3C[C@H](OCc4cccc(F)c4F)C3)c2F)[nH]1 [Example 153]
Outgoing: > 9.00

Incoming: Give pIC50 for O=c1cc(C(F)(F)F)nc(-c2c(C(F)(F)F)ccc(CNC(=O)[C@H]3C[C@H](OCc4ccc(F)c(Cl)c4)C3)c2F)[nH]1 [Example 157] tested on human mPGES-1 (Homo sapiens, UniProt O14684).
Outgoing: > 9.00

Incoming: State the measured pIC50 (human mPGES-1 (Homo sapiens, UniProt O14684)) of O=c1cc(C(F)F)nc(-c2c(C(F)(F)F)ccc(CNC(=O)[C@H]3C[C@H](OCc4ccc(F)cc4Cl)C3)c2F)[nH]1 [Example 173]
Outgoing: > 9.00

* * *

target: human mPGES-1 (Homo sapiens); construct: made in house; host or cells: COS-1 cells (transient transfection; microsomal fraction used as enzyme); test: Test for mPGES-1 inhibitory activity (microsomal enzyme, PGE2 EIA); format: biochemical; settings: microsomes from COS-1 cells transfected with human mPGES-1 cDNA; substrate PGH2 1 μM; 4° C., 4 minutes; PGE2 measured by EIA; read-out: h mPGES1 IC50
value_kind: IC50

>>> observed_result("O=C(NCc1ccc(C(F)(F)F)c(-c2nc(C(F)F)cc(=O)[nH]2)c1F)C1CCN(c2ncc(C(F)(F)F)cc2F)CC1")
"< 1 nM"
>>> observed_result("Cc1cc(=O)[nH]c(-c2c(C(F)(F)F)ccc(CNC(=O)[C@H]3CC[C@H](OCc4cccc(Cl)c4)CC3)c2F)n1")
"19 nM"

Incoming: Report measured IC50; entry is `O=C(NCc1ccc(C(F)(F)F)c(-c2nc(C(F)(F)F)cc(=O)[nH]2)c1F)C1CCN(c2ccc(OC(F)(F)F)cc2)CC1`
Outgoing: < 1 nM

These measurements were taken from patent US20250340557A1.
